Source: patent US20260116991A1

Item-by-item account of OD450 nm
- target entity: monkey GPC3-His protein (monkey)
- assay comment: ELISA, monkey GPC3-His coated; antibody 13.33 nM
measured endpoint: OD450 nm

binder="hAb003LH1L1b (antibody, human IgG1, V domains shown) VH: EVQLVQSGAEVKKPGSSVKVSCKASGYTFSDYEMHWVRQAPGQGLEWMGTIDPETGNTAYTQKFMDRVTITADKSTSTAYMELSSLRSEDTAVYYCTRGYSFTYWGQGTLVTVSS VL: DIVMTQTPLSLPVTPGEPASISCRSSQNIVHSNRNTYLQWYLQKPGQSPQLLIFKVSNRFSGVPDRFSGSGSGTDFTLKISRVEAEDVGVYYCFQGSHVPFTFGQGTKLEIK" observed_value=2.64
binder="hAb007LH2L1a (antibody, human IgG1, V domains shown) VH: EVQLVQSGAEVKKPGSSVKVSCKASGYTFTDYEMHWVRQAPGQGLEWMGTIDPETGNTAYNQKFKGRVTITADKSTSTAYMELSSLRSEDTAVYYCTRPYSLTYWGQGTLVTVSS VL: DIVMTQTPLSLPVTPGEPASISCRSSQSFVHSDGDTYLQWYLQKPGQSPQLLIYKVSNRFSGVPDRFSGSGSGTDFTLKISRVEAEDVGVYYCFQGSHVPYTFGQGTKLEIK" observed_value=2.39
binder="hAb007LH3L1b (antibody, human IgG1, V domains shown) VH: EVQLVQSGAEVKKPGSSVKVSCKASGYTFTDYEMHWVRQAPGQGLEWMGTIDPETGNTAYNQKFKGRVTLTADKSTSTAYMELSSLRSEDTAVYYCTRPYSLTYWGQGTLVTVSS VL: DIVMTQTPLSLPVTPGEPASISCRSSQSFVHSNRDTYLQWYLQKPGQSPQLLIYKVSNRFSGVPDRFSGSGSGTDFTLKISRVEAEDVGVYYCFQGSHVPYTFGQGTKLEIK" observed_value=2.47
binder="hAb005LH1L1a (antibody, human IgG1, V domains shown) VH: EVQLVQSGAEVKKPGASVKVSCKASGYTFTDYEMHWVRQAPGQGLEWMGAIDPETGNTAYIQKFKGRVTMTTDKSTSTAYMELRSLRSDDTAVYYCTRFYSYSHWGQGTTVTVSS VL: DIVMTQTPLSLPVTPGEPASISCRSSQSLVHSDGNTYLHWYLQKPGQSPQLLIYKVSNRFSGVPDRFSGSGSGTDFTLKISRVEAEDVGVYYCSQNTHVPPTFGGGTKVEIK" observed_value=0.195
binder="hAb006LH3L1a (antibody, human IgG1, V domains shown) VH: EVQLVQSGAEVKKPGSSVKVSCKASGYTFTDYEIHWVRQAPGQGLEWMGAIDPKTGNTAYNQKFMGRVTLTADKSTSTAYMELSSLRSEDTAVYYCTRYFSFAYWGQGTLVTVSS VL: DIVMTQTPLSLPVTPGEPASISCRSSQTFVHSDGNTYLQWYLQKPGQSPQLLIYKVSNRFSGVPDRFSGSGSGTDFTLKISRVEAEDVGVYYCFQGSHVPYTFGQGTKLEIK" observed_value=2.09
